Measured attribute: melting point

# count of solved cases: 3
COC(=O)c1c(C)cc(O)c(Cl)c1O    122 to 125 °C
CCCCCCCCCCCCCCCCCC(=O)NN(C(=O)CCCCCCCCCCCCCCCCC)C(=O)CCC(=O)NN    248 to 252 °C
O=C(O)COc1c(-c2cc(Cl)cc(Cl)c2)cc(C(=O)NCCCCCCCCc2ccccc2)cc1-c1cc(Cl)cc(Cl)c1    139 to 149 °C

Prompt: Fill in the blank: the reported melting point of CCOC(=O)N=C(N)c1ccc(OCc2cccc(COc3ccc(C(C)(C)c4ccccc4)cc3)c2)cc1 is ____.
Completion: 99 °C

Just for reference, a melting point compilation (Tetko et al.; mined from patent text by program, amines drawn as free bases though some values may be those of a salt) is where these values come from.
